# System: MS2 coat protein
# assay-summary: apparent KD of MS2 coat protein; higher = weaker reporter binding
# measurement-setup: Eterna round: R107; input ligand: theophylline 20 uM
observed-property: apparent KD of MS2 coat protein (nM)
Give bare numbers, in nM.

- sequence-data: "AAGAACCAGACGGCCGCCACUGGCCAGACAGGGUUCAUGGAAACAUGAGGAUCACCCAUGUCUUCCAGGACCGGGUCUGAAGAGG [Esbiisin]"
  target-under-test: "MS2 coat protein"
  apparent KD of MS2 coat protein (nM): 9.86
- sequence-data: "GCUAUGGCUAGAAGGAGCGUGAAUUUCAGAAAACAUGAGGAUCACCCAUGUAAGGAUAUGACACAGGUAGGUCGCUAGCCAUAGC [SSAB NP+V+V2 #19]"
  target-under-test: "MS2 coat protein"
  apparent KD of MS2 coat protein (nM): 10.5

Okay, now this sequence:
[in] Requested read-out: apparent KD of MS2 coat protein. Entry: UUUGAUAGGACAGAUACCAGCGUGUUAUAAAACAUGAGGAUCACCCAUGUAGUGAUCAAGCGCCCUUGGCAGCUGGUUUGUUAGG [7.J]
[out] 220

###

Please provide measured apparent KD of MS2 coat protein for the entries that follow.
# System: MS2 coat protein
# assay-summary: apparent KD of MS2 coat protein, switch ON state; designed switch direction (-1 OFF switch, 1 ON switch): 1; higher = weaker reporter binding
# measurement-setup: FMN input: 0 or 200 uM; Eterna round: R93 (includes R88 designs)
Give bare numbers, in nM.

- sequence-data: "AGGAAACAUGAGGAUCACCCAUGUAAAAAUAUGGGAGGAUAUACGAAGACAAAAAAAAAAGUAGAAGGCCUAAAAG [Garnet 12]"
  apparent KD of MS2 coat protein, nM: 65.2
- sequence-data: "AUAAAAUAAACUGAGGAUAUCUAUAAUAAAACAUGAGGAUCACCCAUGUUUAAACAAAGAUCAUGGGAGAAGGCAGAAAAUAAAU [SS2 M 38]"
  apparent KD of MS2 coat protein, nM: 37.8
- sequence-data: "AACAAUCUAUCUGAGGAUAUAUGUCGAAAGACAUGAGGAUCACCCAUGUGAAAACAUGAAAAGACAUAGAAGGCAGAUAGAUUGA [SS2: 1131]"
  apparent KD of MS2 coat protein, nM: 27.4

Could you tell me apparent KD of MS2 coat protein for each of these sequences? They are listed below.
1. GAAAAACAUGAGGAUCACCCAUGUGUAAAUAUGGAAGGAUAUACAAAGACGUAAGUCAAAGUAGAAGGUCUAAAAG [Mat - Same State 1 - Eli mod - D17]
2. AGGAGACAUGAGGAUCACCCAUGUGAGAAGAGGCGAGGAUAUCGAAAGAAAGAAGAGAAACGAGAAGGCGCGAGCA [salish99-SS1-020]
3. CUGGACAUAGUAUAGGAUAUAUGAAUAAUUACAUGAGGAUCACCCAUGUCCAUUUAUAUGGGAACAUAGAAGGGUGGUAGUUAAG [Mat - Same state - Malcolm Mod - D142]
4. AGAAAUAAAAGAGAGGAUAUCCAAAAGAAAACAUGAGGAUCACCCAUGUAAAAGAAAAUAAAAUGGGAGAAGGCUCAUGAUAAAG [JL In the Red Helter Skelter 2 mod 1]

[out]
[18.8, 19.7, 147, 42]

For each entry beneath this line, provide reported apparent KD of MS2 coat protein.
1. AAAGGGAUUACGGAGGAUAUGGAAAAAAAAACAUGAGGAUCACCCAUGUCAAAAAAAAAAAAGGACCAGAAGGCCGUAAUCUCAAA [hsl_samestate2]
2. UGGAGACAUGAGGAUCACCCAUGUGAGAAGAGGCGAGGAUAUCGAAAGAAAGAAGAGAAACGAGAAGGCGCGAGUG [salish99-SS1-042]
3. AAUACACAUGGUCAGGAUAUCGCAGCUAGGACAUGAGGAUCACCCAUGUCGUAAGUAAAAGUAAAUGAGAAGGGACAGGGUGACC [JR_SS002_Sub406]
4. GAAGACAUAGUUCAGGAUAUGGUAAUAGUCACAUGAGGAUCACCCAUGUGCAUUUAUAUGCGCGAUCAGAAGGGAGGUAGAUAAG [Mat - Same state - Malcolm Mod - D116]
5. AAAACACAUGAGGAUCACCCAUGUGCAAAAUUCGCAGGAUAUUCCUCAAUUAAAUGAGAGGAAGAAGGGUGAUAAA [Nob's Hobby 33 - Jieux - Same State 1]
6. AACAAUCUAUCUGAGGAUAUAUGUCGAAAGACAUGAGGAUCACCCAUGUGAAAACAUGAAAAAUAAUAGAAGGCAGAUAGAUUGA [SS2: 1141]
7. GAACCACAUGAGGAUCACCCAUGUCUAAAUAUGGGAGGAUAUGCACAAAAGGAAAUAACUGCAGAAGGCCUACGAA [62%, Redo, 3]
8. AAAAAAAAGGGUGAGGAUAUCGAAAAAAAAACAUGAGGAUCACCCAUGUGAAAAAAAAAAAAAUGCGAGAAGGCACUAAAAAAAAA [Same State 2.3]

[out]
[19.9, 40.3, 133, 18.6, 18.9, 80.5, 25.7, 23.2]

I have 3 sequences here; please give me apparent KD of MS2 coat protein for each one.
1. AAAACACAUGAGGAUCACCCAUGUAAAAACAUGAGAGGAUAUGCAUAGAAAAAAAACUAUGCAGAAGGCUCAUGUG [SS1 - 5]
2. AAAUAAAGGACUGAGGAUAUACCACAUGAAACAUGAGGAUCACCCAUGUAAUAAUACAAAGGGUGGUAGAAGGUAGUCCACAAACA [so let's mod Hyphema]
3. GAAAAACAUGAGGAUCACCCAUGUAGAAAUAUGGGAGGAUAUACAAAGACGAAAGUCAAAGUAGAAGGCCUUAAAG [JL S1 M-MoE mod 1 In the Red]

[out]
1: 20; 2: 14; 3: 28.3

Take each entry in turn and give its apparent KD of MS2 coat protein.
1. AGAAAACAUGAGGAUCACCCAUGUAGGAAUAUGGGAGGAUAUACAAAGACGAAAGUCAGAGUAGAAGGCCUAGGAA [salish99-SS1-089]
2. AGGAAACAUGAGGAUCACCCAUGUAAAGAUGGGCGAGGAUAUCGAAAGAAAAGAAAGAAACGAGAAGGUGCAAAAG [59%, Flamingo, 1]
3. CAGAGACAUGAGGAUCACCCAUGUAGGAUUAUGGGAGGAUAUACAAAGACGAGAGUCAGAGUAGAAGGCCUAGGAA [salish99-ss1-141]
4. AGGAAACAUGAGGAUCACCCAUGUAUAAAAAUGGGAGGAUAUACAAAGACGAAAGUCAAAGUAGAAGGCCUAAAAA [76%, Meechl, 7]
5. AACAAUCUAUCUGAGGAUAUCAUGUCAAAGACAUGAGGAUCACCCAUGUCCAGGAAAACUGGAUAUGAGAAGGCAGAUAGAUUGA [SS2: 1105]
6. AACAUACAUGAGGAUCACCCAUGUUCCGGCAGGUCAGGAUAUUCAUCGAAAGUGUUAUAAGAAGAAGGGACAUAAA [JR_SS001_Sub011]

[out]
[20.7, 409, 21.1, 18.8, 179, 34]
